Target: T1, hu-M-IL1RAP construct, positions S21-T367 (extracellular domain of the membrane form of human IL1RAP) (human, UniProt Q9NPH3 21-367)
T1 construct: Biotinylated when captured on the Biacore chip
T1 sequence: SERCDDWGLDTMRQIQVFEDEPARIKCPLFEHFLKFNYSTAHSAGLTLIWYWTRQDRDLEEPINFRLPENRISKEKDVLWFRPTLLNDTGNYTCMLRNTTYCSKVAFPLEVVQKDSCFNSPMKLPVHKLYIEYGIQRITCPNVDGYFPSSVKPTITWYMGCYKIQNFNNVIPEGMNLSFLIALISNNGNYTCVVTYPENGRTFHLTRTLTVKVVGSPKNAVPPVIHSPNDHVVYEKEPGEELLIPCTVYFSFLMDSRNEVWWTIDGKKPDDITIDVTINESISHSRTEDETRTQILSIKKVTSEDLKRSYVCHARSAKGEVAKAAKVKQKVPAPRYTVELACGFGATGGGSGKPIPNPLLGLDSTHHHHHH
Experiment: SPR, Fab analyte, 25 C
ASSAY_ENDPOINT: kon (M⁻¹ s⁻¹)
// note: answer is a bare numeric in M⁻¹ s⁻¹

Completed entries (count: 2):
BINDER	READING
K5 Fab (VL Y30W/W92L) (Fab, V domains shown, Fab with 8xHis tag) VH: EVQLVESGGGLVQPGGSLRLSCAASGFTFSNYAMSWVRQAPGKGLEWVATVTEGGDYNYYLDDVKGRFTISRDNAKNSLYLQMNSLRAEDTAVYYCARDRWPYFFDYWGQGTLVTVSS VL: DIQMTQSPSSLSASVGDRVTITCRASENIWSNLAWYQQKPGKSPKLLVYGAKNLADGVPSRFSGSGSGTDYTLTISSLQPEDFATYYCQHFLTTPRTFGGGTKVEIK	5.11e+06
H6 Fab (VH R96Q) (Fab, V domains shown, Fab with 8xHis tag) VH: EVQLVESGGGLVQPGGSLRLSCAASGFTFSNYAMSWVRQAPGKGLEWVATVTEGGDYNYYLDDVKGRFTISRDNAKNSLYLQMNSLRAEDTAVYYCARDQWPYFFDYWGQGTLVTVSS VL: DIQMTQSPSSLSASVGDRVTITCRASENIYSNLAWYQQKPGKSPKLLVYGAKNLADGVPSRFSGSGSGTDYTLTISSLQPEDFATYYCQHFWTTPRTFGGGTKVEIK	5.34e+06

What does the record list as kon for K10 Fab (VL A51Y) (Fab, V domains shown, Fab with 8xHis tag) VH: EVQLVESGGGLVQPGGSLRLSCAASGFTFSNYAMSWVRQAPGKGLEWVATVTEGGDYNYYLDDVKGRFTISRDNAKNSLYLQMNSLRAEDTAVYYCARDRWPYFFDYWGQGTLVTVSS VL: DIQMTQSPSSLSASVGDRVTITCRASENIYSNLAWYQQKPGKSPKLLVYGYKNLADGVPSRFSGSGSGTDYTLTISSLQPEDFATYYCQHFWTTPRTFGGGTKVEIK ? 5.92e+06
